Readings of Cmax for the listed compounds
Assay: Cmax in Sprague-Dawley rat at 20 mg/kg, po
Assay type: ADME, organism-based
Set-up: dose 20 mg/kg, route oral
Details: in vivo

| compound | Cmax, ng/mL |
| --- | --- |
| CC1=C(C(=O)Nc2nc3ccccc3s2)C(c2ccccc2)NC(=S)N1 (centres undefined) | 590 |
| CC1=C(C(=O)Nc2nc3ccccc3s2)C(c2ccc(N(C)C)cc2)NC(=S)N1 (centres undefined) | 410 |
| CC1=C(C(=O)Nc2nc3ccccc3s2)C(c2ccc(C(F)(F)F)cc2)NC(=S)N1 (centres undefined) | 490 |
| CC1=C(C(=O)Nc2nc3ccccc3s2)C(c2ccc(F)cc2)NC(=S)N1 (centres undefined) | 340 |
